The reader will find reported MIC50 values listed item by item below.
system: Vero; experiment: Minimum inhibitory concentration against African swine fever virus, in vero monkey kidney cells; type: functional; settings: Chlorocebus sabaeus
Number only, in µg/mL; omit the unit.

Solved cases (4 shown):
                                   molecule  assayed_target  measured_number
0  C=C1C2(NCC)CCC(C2)C1(C)C (stereo unspecified)            Vero              100
1  CCNC12CCC(C1)C(C)(C)C2C (stereo unspecified)            Vero               30
2  CC1C2(N)CCC(C2)C1(C)C (stereo unspecified)            Vero               30
3  C=C1C2CCC(NCC)(C2)C1(C)C (stereo unspecified)            Vero               30

Recall and state the measured MIC50 for CCNC12CCC(C1)C(C)C2(C)C (stereo unspecified) .
25

Recall and state the measured MIC50 for CC1C2CCC(N)(C2)C1(C)C (stereo unspecified) .
25

* * *

tested on: Vero; assay: Minimum inhibitory concentration against herpes simplex virus 2, in vero monkey kidney cells; type: functional; details: Chlorocebus sabaeus
The reader will find reported log10 of MIC50 values listed item by item below.
Scale: log10; quantity: MIC50; unit before log: µg/mL

In [3]: df
Out[3]:
                                   compound  measured_number
0  C=C1C2CCC(NCC)(C2)C1(C)C (stereo unspecified)             2.00

Recall and state the measured log10 of MIC50 for C=C1C2(NCC)CCC(C2)C1(C)C (stereo unspecified) .
2.48

Recall and state the measured log10 of MIC50 for CCNC12CCC(C1)C(C)C2(C)C (stereo unspecified) .
1.40

Recall and state the measured log10 of MIC50 for CCNC12CCC(C1)C(C)(C)C2C (stereo unspecified) .
1.88

Recall and state the measured log10 of MIC50 for CC1C2CCC(N)(C2)C1(C)C (stereo unspecified) .
1.40

Recall and state the measured log10 of MIC50 for CC1C2(N)CCC(C2)C1(C)C (stereo unspecified) .
1.70

* * *

The reader will find reported Selectivity index values listed item by item below.
assay: […] against African Swine Fever Virus; type: functional
The reply should be a number, written without any unit.

                                   compound  measured_number
0  CC1C2CCC(N)(C2)C1(C)C (stereo unspecified)                8
1  CCNC12CCC(C1)C(C)C2(C)C (stereo unspecified)               12
2  CCNC12CCC(C1)C(C)(C)C2C (stereo unspecified)               10
3  C=C1C2CCC(NCC)(C2)C1(C)C (stereo unspecified)               13

Recall and state the measured Selectivity index for C=C1C2(NCC)CCC(C2)C1(C)C (stereo unspecified) .
3

Recall and state the measured Selectivity index for CC1C2(N)CCC(C2)C1(C)C (stereo unspecified) .
10

* * *

test system: MDCK; assay: Minimum inhibitory concentration against influenza A virus, in MDCK cells from dog kidney; format: functional; conditions: Canis lupus familiaris
MEASUREMENT KIND: MIC50 (µg/mL)
Number only, in µg/mL; omit the unit.

Write down measured MIC50 (MDCK) for this molecule. CC1C2CCC(N)(C2)C1(C)C (stereo unspecified)
5

Write down measured MIC50 (MDCK) for this molecule. C=C1C2CCC(NCC)(C2)C1(C)C (stereo unspecified)
0.1

Write down measured MIC50 (MDCK) for this molecule. Cl.NC12CC3CC(CC(C3)C1)C2 [AMANTADINE HYDROCHLORIDE]
0.5

Write down measured MIC50 (MDCK) for this molecule. C=C1C2(NCC)CCC(C2)C1(C)C (stereo unspecified)
5

Write down measured MIC50 (MDCK) for this molecule. CCNC12CCC(C1)C(C)(C)C2C (stereo unspecified)
0.1

Reference for the values: ChEMBL document CHEMBL1128182
